- experimental_target: Peptide deformylase, mitochondrial (Homo sapiens) (UniProt Q9HBH1)
- Sequence (Q9HBH1 whole entry): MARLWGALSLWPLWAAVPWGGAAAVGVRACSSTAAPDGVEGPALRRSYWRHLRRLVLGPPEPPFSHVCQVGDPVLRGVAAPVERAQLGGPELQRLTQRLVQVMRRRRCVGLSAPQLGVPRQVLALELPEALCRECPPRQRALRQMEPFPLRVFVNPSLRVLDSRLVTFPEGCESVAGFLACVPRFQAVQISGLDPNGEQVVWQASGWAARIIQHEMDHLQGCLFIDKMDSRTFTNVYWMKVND
- method_summary: Inhibition of human peptide deformylase at 100 uM after 1 hr by fluorescence polarization based competition assay
test_readout: inhibition (%)

> print(dat)
                          structure.notation                       experimental.target  units.symbol  value.measured
 1  COc1ccc(C(=O)c2coc3c2C(=O)C(=O)C(Cl)=C3Cl)cc1OC  Peptide deformylase, mitochondrial (Homo sapiens) (UniProt Q9HBH1)             %             100
 2  COc1ccc(C(=O)c2coc3c2C(=O)C(=O)C(Br)=C3Br)cc1  Peptide deformylase, mitochondrial (Homo sapiens) (UniProt Q9HBH1)             %             100
 3  COc1cc(C(=O)c2coc3c(Br)c(Br)c(O)cc23)cc(OC)c1OC  Peptide deformylase, mitochondrial (Homo sapiens) (UniProt Q9HBH1)             %               5
 4  COc1ccc(C(=O)c2coc3c2C(=O)C(=O)C(Br)=C3)cc1  Peptide deformylase, mitochondrial (Homo sapiens) (UniProt Q9HBH1)             %             100
 5  COc1ccc(C(=O)c2coc3c2C(=O)C(=O)C(Br)=C3Br)cc1OC  Peptide deformylase, mitochondrial (Homo sapiens) (UniProt Q9HBH1)             %             100
 6     O=C(c1ccccc1)c1coc2c(Cl)c(Cl)c(O)cc12  Peptide deformylase, mitochondrial (Homo sapiens) (UniProt Q9HBH1)             %              24
 7   COc1ccc(C(=O)c2coc3c2C(=O)C(=O)C=C3)cc1  Peptide deformylase, mitochondrial (Homo sapiens) (UniProt Q9HBH1)             %             100
 8     COc1ccc(C(=O)c2coc3c(Br)cc(O)cc23)cc1  Peptide deformylase, mitochondrial (Homo sapiens) (UniProt Q9HBH1)             %              11
 9             O=C(c1ccccc1)c1coc2ccc(O)cc12  Peptide deformylase, mitochondrial (Homo sapiens) (UniProt Q9HBH1)             %              11
10  COc1ccc(C(=O)c2coc3c(Cl)c(Cl)c(O)cc23)cc1OC  Peptide deformylase, mitochondrial (Homo sapiens) (UniProt Q9HBH1)             %               0
11  COc1ccc(C(=O)c2coc3cc(Cl)c(O)c(Cl)c23)cc1  Peptide deformylase, mitochondrial (Homo sapiens) (UniProt Q9HBH1)             %              26
